- Test system: 922993-354-T-J3-PDC complex spheroid viability
- Procedure summary: Anticancer human tumor 922993-354-T-J3-PDC patient-derived endometrial carcinoma cell line growth inhibition [POLQ]
- Condition description: curve of first compound; second compound 0.316 µM
- Protocol: Multicellular complex tumor spheroid response to Polymerase (POL) inhibitors (novobiocin, ART-558, RP6685) in combination with a variety of drugs and investigational agents in selected tumor cell lines The POL inhibitors (novobiocin, ART-558, and RP6685) were evaluated both individually and in combination with standard of care and investigational anticancer small molecules within a complex spheroid model of solid tumors. . […]
In this section, each of the molecules is paired with its reported pIC50.
The scale used: pIC50 is minus the common logarithm of the concentration in molar units.

>  <Molecule>
COc1cccc2c1C(=O)c1c(O)c3c(c(O)c1C2=O)CC(O)(C(=O)CO)CC3OC1CC(N)C(O)C(C)O1 (stereo not given) + Nc1ccc(C#CCN(C(=O)Cc2ncc(C(F)(F)F)cc2C(F)(F)F)c2ccc(F)cc2)nn1

>  <Value reported>
5.24

$$$$
>  <Molecule>
CCc1c2c(nc3ccc(O)cc13)-c1cc3c(c(=O)n1C2)COC(=O)[C@]3(O)CC + Nc1ccc(C#CCN(C(=O)Cc2ncc(C(F)(F)F)cc2C(F)(F)F)c2ccc(F)cc2)nn1

>  <Value reported>
7.51

$$$$
>  <Molecule>
CC[C@@]1(O)C(=O)OCc2c1cc1n(c2=O)Cc2cc3c(CN(C)C)c(O)ccc3nc2-1 + COC1C(OC(N)=O)C(O)C(Oc2ccc3c(O)c(NC(=O)c4ccc(O)c(CC=C(C)C)c4)c(=O)oc3c2C)OC1(C)C

>  <Value reported>
7.08

$$$$

Then there is this molecule:
query: // pIC50 lookup, key: O=c1[nH]cc(F)c(=O)[nH]1 + COC1C(OC(N)=O)C(O)C(Oc2ccc3c(O)c(NC(=O)c4ccc(O)c(CC=C(C)C)c4)c(=O)oc3c2C)OC1(C)C
result: 5.67

----------
- System: 922993-354-T-J3-PDC complex spheroid viability
- Procedure summary: Anticancer human tumor 922993-354-T-J3-PDC cell line growth inhibition [POLQ];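 note: spheroids exposed to the agents for one week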;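 for viability, T/C: 100% = DMSO vehicle control wells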
- Condition description: second compound 3.16 µM; first compound 0.1 µM; stronger effect = lower value
- Experimental: Multicellular complex tumor spheroid response to Polymerase (POL) inhibitors (novobiocin, ART-558, RP6685) in combination with a variety of drugs and investigational agents in selected tumor cell lines The POL inhibitors (novobiocin, ART-558, and RP6685) were evaluated both individually and in combination with standard of care and investigational anticancer small molecules within a complex spheroid model of solid tumors. . […]
Recorded endpoint: viability, T/C (%)
Answer format: numeric, % implied, no suffix.

>  <Compound>
CC(C)n1c(=O)n(C)c2cnc3cc(F)c(-c4ccc(OCCCN5CCCCC5)nc4)cc3c21 + COC1C(OC(N)=O)C(O)C(Oc2ccc3c(O)c(NC(=O)c4ccc(O)c(CC=C(C)C)c4)c(=O)oc3c2C)OC1(C)C

>  <Recorded endpoint>
viability, T/C

>  <Value reported>
104

$$$$
>  <Compound>
COc1cccc(OCCCN)c1-c1cc(Nc2cnc(C#N)cn2)n[nH]1 + Nc1ccc(C#CCN(C(=O)Cc2ncc(C(F)(F)F)cc2C(F)(F)F)c2ccc(F)cc2)nn1

>  <Recorded endpoint>
viability, T/C

>  <Value reported>
94.2

$$$$
>  <Compound>
C#Cc1c(F)ccc2cc(O)cc(-c3ncc4c(N5CC6CCC(C5)N6)nc(OCC56CCCN5CC(F)C6)nc4c3F)c12 (stereo unspecified) + Cc1cccc(N(C)C(=O)C2C(O)CCN2c2nc(C)cc(C(F)(F)F)c2C#N)c1

>  <Recorded endpoint>
viability, T/C

>  <Value reported>
101

$$$$
>  <Compound>
O=c1[nH]cc(F)c(=O)[nH]1 + COC1C(OC(N)=O)C(O)C(Oc2ccc3c(O)c(NC(=O)c4ccc(O)c(CC=C(C)C)c4)c(=O)oc3c2C)OC1(C)C

>  <Recorded endpoint>
viability, T/C

>  <Value reported>
96.7

$$$$
>  <Compound>
CC1COCCN1c1cc(C2(O)CC3CCC(C2)O3)c2cnn(-c3ccn[nH]3)c2n1 (stereo unspecified) + Nc1ccc(C#CCN(C(=O)Cc2ncc(C(F)(F)F)cc2C(F)(F)F)c2ccc(F)cc2)nn1

>  <Recorded endpoint>
viability, T/C

>  <Value reported>
101

$$$$

query: Field: viability, T/C (922993-354-T-J3-PDC complex spheroid viability). Entry: CNCc1ccc(-c2[nH]c3cc(F)cc4c3c2CCNC4=O)cc1 + Cc1cccc(N(C)C(=O)C2C(O)CCN2c2nc(C)cc(C(F)(F)F)c2C#N)c1
result: 104

query: Field: viability, T/C (922993-354-T-J3-PDC complex spheroid viability). Entry: COc1cc2cc(C(=O)CCC(=O)O)sc2cc1OC + Cc1cccc(N(C)C(=O)C2C(O)CCN2c2nc(C)cc(C(F)(F)F)c2C#N)c1
result: 101

query: Field: viability, T/C (922993-354-T-J3-PDC complex spheroid viability). Entry: COc1cc2cc(C(=O)CCC(=O)O)sc2cc1OC + COC1C(OC(N)=O)C(O)C(Oc2ccc3c(O)c(NC(=O)c4ccc(O)c(CC=C(C)C)c4)c(=O)oc3c2C)OC1(C)C
result: 87.6

query: Field: viability, T/C (922993-354-T-J3-PDC complex spheroid viability). Entry: CC(C)n1c(=O)n(C)c2cnc3cc(F)c(-c4ccc(OCCCN5CCCCC5)nc4)cc3c21 + Cc1cccc(N(C)C(=O)C2C(O)CCN2c2nc(C)cc(C(F)(F)F)c2C#N)c1
result: 109

query: Field: viability, T/C (922993-354-T-J3-PDC complex spheroid viability). Entry: Nc1ccn(C2OC(CO)C(O)C2(F)F)c(=O)n1 (stereo unspecified) + Cc1cccc(N(C)C(=O)C2C(O)CCN2c2nc(C)cc(C(F)(F)F)c2C#N)c1
result: 10.2

query: Field: viability, T/C (922993-354-T-J3-PDC complex spheroid viability). Entry: CC1COCCN1c1cc(C2(S(C)(=N)=O)CC2)nc(-c2ccnc3[nH]ccc23)n1 (stereo unspecified) + COC1C(OC(N)=O)C(O)C(Oc2ccc3c(O)c(NC(=O)c4ccc(O)c(CC=C(C)C)c4)c(=O)oc3c2C)OC1(C)C
result: 103
